# protocol-notes: Solubility in water
# Assay type: physicochemical
# experimental-conditions: pH 8.0, read-out: Solubility limit in water
Residues, ends and D or L forms follow the SMILES beside them.

>  <compound>
CC(=O)N[C@@H](Cc1ccc(O)cc1)C(=O)N[C@H](C(=O)N[C@@H](Cc1ccc(O)cc1)C(=O)N[C@@H](Cc1c[nH]cn1)C(=O)N[C@H](C(=O)N[C@@H](CC(=O)O)C(N)=O)C(C)C)[C@@H](C)O [P7] (Ac-YTYHVD-NH2)

>  <solubility>
1000 µM

$$$$
